protocol-text: Metabolic stability in human liver microsomes
Type: ADME, Microsome
condition-description: read-out: Stability
measurement-label: microsomal CLint (µL/min/mg)
State the answer as a number, implicitly in µL/min/mg.

Q. Assign microsomal CLint to the following record: Cc1cc(C(=O)Nc2cc(Oc3ccc4nc(NC(=O)C5CC5)nn4c3)ccc2F)n(C)n1
A. 10

Q. Provide measured microsomal CLint value, entry: Cc1cc(C(=O)Nc2cccc(Oc3ccc4nc(NC(=O)C5CC5)cn4n3)c2)n(C)n1
A. 6

Q. Please give the documented microsomal CLint of Cc1ccc(Oc2ccc3nc(NC(=O)C4CC4)nn3c2)cc1NC(=O)c1cn(C)nc1C
A. 6

---

protocol-text: Kinetic solubility of the compound in 2nd fluid of Disintegration Test of the Japanese Pharmacopoeia at pH 6.8
Format: physicochemical
condition-description: read-out: Kinetic_solubility
So I've got a bunch of compounds here, and I need their log10(solubility kinetic) values.
log10 solubility kinetic, µg/mL

Q. Quick one: give measured log10(solubility kinetic) for Cc1cc(C(=O)Nc2cc(Oc3ccc4nc(NC(=O)C5CC5)cn4c3)ccc2C)n(C)n1
A. 0.46

Q. Quick one: give measured log10(solubility kinetic) for Cc1ccc(Oc2ccc3nc(NC(=O)C4CC4)nn3c2)cc1NC(=O)CC(C)C
A. 1.08

Q. Indicate the recorded log10(solubility kinetic) value for this compound: Cc1cc(C(=O)Nc2cccc(Oc3ccc4nc(NC(=O)C5CC5)nn4c3)c2)n(C)n1
A. 0.08

Q. Quote log10(solubility kinetic) reported for Cc1cc(C(=O)Nc2cccc(Oc3ccc4nc(NC(=O)C5CC5)cn4c3)c2)n(C)n1 please.
A. -0.14

Q. Let me know recorded log10(solubility kinetic) for Cc1cc(C(=O)Nc2cccc(Oc3ccc4nc(NC(=O)C5CC5)cn4n3)c2)n(C)n1 , thanks.
A. 0.23

Q. Specify reported log10(solubility kinetic) for the compound shown: Cc1cc(C(=O)Nc2ccc(C)c(Oc3ccc4nc(NC(=O)C5CC5)nn4c3)c2)n(C)n1
A. 0.57

Q. Dear colleague, please send me the reported log10(solubility kinetic) for Cc1cc(C(=O)Nc2cc(Oc3ccc4nc(NC(=O)C5CC5)nn4c3)ccc2F)n(C)n1 when you can.
A. 1.81

Q. Provide measured log10(solubility kinetic) value, entry: Cc1cc(C(=O)Nc2cc(Oc3ccc4nc(NC(=O)C5CC5)sc4n3)ccc2C)n(C)n1
A. 0.68

Q. Consider the compound Cc1ccc(Oc2ccc3nc(NC(=O)C4CC4)nn3c2)cc1NC(=O)c1scc(C)c1Cl . State its measured log10(solubility kinetic).
A. 0.08

Q. Consider the compound Cc1cc(NC(=O)c2cc(C)nn2C)cc(Oc2ccc3nc(NC(=O)C4CC4)nn3c2)c1 and give its recorded log10(solubility kinetic).
A. 0.51

---

Hi there, I'd appreciate the recorded solubility kinetic for every entry that follows.
protocol-text: Kinetic solubility of the compound in 2nd fluid of Disintegration Test of the Japanese Pharmacopoeia at pH 6.8
Type: physicochemical
condition-description: read-out: Kinetic_solubility
Return type: number; implicit unit µg/mL.

Q. Annotate the molecule Cc1cc(C(=O)Nc2cccc(Oc3ccc4nc(NC(=O)C5CC5)sc4c3)c2)n(C)n1 with its measured solubility kinetic.
A. 0.22

Q. Dear colleague, please send me the reported solubility kinetic for Cc1nc(C(=O)Nc2cc(Oc3ccc4nc(NC(=O)C5CC5)nn4c3)ccc2C)c(C)s1 when you can.
A. 0.16

Q. Annotate the molecule Cc1cc(C(=O)Nc2cc(Oc3ccc4nc(NC(=O)C5CC5)nn4c3)ccc2C)n(C)n1 with its measured solubility kinetic.
A. 53
